Field: pIC50. Provide a value for each of the compounds that follow.
- Measurement target: human V2 receptor (Homo sapiens)
- Construct: expressed in transfected cells; host or cells: CHO K1 (ATCC) expressing firefly luciferase under a CRE-responsive promoter
- Sequence (P30518 whole entry): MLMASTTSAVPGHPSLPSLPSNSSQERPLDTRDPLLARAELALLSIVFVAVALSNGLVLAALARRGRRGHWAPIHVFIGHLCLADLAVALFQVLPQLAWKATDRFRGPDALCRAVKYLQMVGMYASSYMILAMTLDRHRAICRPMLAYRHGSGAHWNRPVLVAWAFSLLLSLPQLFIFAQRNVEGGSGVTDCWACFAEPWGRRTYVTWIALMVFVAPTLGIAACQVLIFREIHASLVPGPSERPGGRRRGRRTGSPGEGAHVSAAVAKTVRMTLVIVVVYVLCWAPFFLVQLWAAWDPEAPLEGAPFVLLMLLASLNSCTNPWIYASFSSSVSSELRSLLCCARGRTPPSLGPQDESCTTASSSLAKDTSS
- Protocol: Cellular in vitro assay for determining vasopressin receptor activity, V2 receptor cell line (CHO, CRE-luciferase)
- Assay type: cell-based
- Test conditions: CHO cell line transfected with human V2 receptor; [Arg8]-vasopressin at EC50 concentration; read-out: IC50 hV2
One number for each entry, as −log10 of the molar value.

Example entries and their recorded answers appear below.
Compound	pIC50
O=C(NC1CC(F)(F)C1)c1cccnc1-n1cnc(Cn2nc(-c3ccc(Cl)cc3)n(C[C@H](O)C(F)(F)F)c2=O)n1	6.33
O=C(NC1CC1F)c1cccnc1-n1cnc(Cn2nc(-c3ccc(Cl)cc3)n(C[C@H](O)C(F)(F)F)c2=O)n1 (mixture of isomers)	6.67
NC(=O)C1CCCN1C(=O)c1ncccc1-n1cnc(Cn2nc(-c3ccc(Cl)cc3)n(C[C@H](O)C(F)(F)F)c2=O)n1 (mixture of isomers)	5.22

For the 3 compounds below, give their pIC50 values.
1. COCC1CCCN1C(=O)c1cccnc1-n1nc(Cn2nc(-c3ccc(Cl)cc3)n(C[C@H](O)C(F)(F)F)c2=O)nc1C(=O)N1CCS(=O)(=O)CC1 (mixture of isomers)
2. O=C(NC1CC1)c1ccncc1-n1nc(Cn2nc(-c3ccc(Cl)cc3)n(C[C@H](O)C(F)(F)F)c2=O)nc1C(=O)N1CCS(=O)(=O)CC1
3. COC[C@@H]1CCCN1C(=O)c1cccnc1-n1cnc(Cn2nc(-c3ccc(Cl)cc3)n(C[C@H](O)C(F)(F)F)c2=O)n1

Key:
1: 5.31; 2: 6.18; 3: 5.70

====

Field: pIC50. Provide a value for each of the compounds that follow.
- Measurement target: human V1a receptor (Homo sapiens, UniProt P37288)
- Sequence (P37288 whole entry): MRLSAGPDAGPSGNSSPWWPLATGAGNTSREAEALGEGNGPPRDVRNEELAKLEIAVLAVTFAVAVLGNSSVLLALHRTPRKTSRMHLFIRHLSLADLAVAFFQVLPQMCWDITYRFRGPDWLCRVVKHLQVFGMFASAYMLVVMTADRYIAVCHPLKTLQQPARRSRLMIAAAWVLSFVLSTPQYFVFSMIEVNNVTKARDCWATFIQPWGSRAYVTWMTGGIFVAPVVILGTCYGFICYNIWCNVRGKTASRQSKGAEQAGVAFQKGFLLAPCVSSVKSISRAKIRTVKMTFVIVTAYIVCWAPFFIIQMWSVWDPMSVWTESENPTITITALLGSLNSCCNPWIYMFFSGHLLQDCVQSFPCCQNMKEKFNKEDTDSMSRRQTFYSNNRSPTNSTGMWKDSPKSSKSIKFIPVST
- Protocol: Cellular in vitro assay for determining vasopressin receptor activity, V1a receptor cell line (CHO, aequorin luminescence)
- Test conditions: CHO cell line transfected with human V1a receptor; [Arg]-vasopressin at EC50 concentration; read-out: IC50 hV1a
Answers are plain numbers, as −log10 of the molar value.

Example entries and their recorded answers appear below.
Compound	pIC50
NC(=O)C1CN(C(=O)c2ccccc2-n2cnc(Cn3nc(-c4ccc(Cl)cc4)n(C[C@H](O)C(F)(F)F)c3=O)n2)C1	7.22
Cc1[nH]ncc1C(=O)Nc1ncccc1-n1cnc(Cn2nc(-c3ccc(Cl)cc3)n(C[C@H](O)C(F)(F)F)c2=O)n1	6.72
O=C(NCC(O)C(F)(F)F)c1cccc(Cl)c1-n1cnc(Cn2nc(-c3ccc(Cl)cc3)n(C[C@@H](O)C(F)(F)F)c2=O)n1 (mixture of isomers)	6.46
CCN1CCN(C(=O)c2ccccc2-n2cnc(Cn3nc(-c4ccc(Cl)cc4)n(C[C@H](O)C(F)(F)F)c3=O)n2)CC1	7.74
CCC(C)NC(=O)c1ccccc1-n1cnc(Cn2nc(-c3ccc(Cl)cc3)n(C[C@H](O)C(F)(F)F)c2=O)n1 (mixture of isomers)	8.90
O=C(NCC1CCCCC1)c1ccccc1-n1cnc(Cn2nc(-c3ccc(Cl)cc3)n(C[C@H](O)C(F)(F)F)c2=O)n1	7.84

For the 5 compounds below, give their pIC50 values.
1. Cc1cnc(NC(=O)c2ccccc2-n2cnc(Cn3nc(-c4ccc(Cl)cc4)n(C[C@H](O)C(F)(F)F)c3=O)n2)s1
2. O=c1n(Cc2ncn(-c3cnccc3NCCC(F)(F)F)n2)nc(-c2ccc(Cl)cc2)n1C[C@H](O)C(F)(F)F
3. CC(=O)Nc1ccncc1-n1cnc(Cn2nc(-c3ccc(Cl)cc3)n(C[C@H](O)C(F)(F)F)c2=O)n1
4. CC1CC1C(=O)Nc1ncccc1-n1cnc(Cn2nc(-c3ccc(Cl)cc3)n(C[C@H](O)C(F)(F)F)c2=O)n1 (stereo partly shown)
5. CC1(C(=O)Nc2ncccc2-n2cnc(Cn3nc(-c4ccc(Cl)cc4)n(C[C@H](O)C(F)(F)F)c3=O)n2)COC1

Key:
1: 8.44; 2: 6.02; 3: 7.96; 4: 7.72; 5: 6.85

For the 2 compounds below, give their pIC50 values.
1. O=C(NCC(F)(F)F)c1cccnc1-n1cnc(Cn2nc(-c3ccc(Cl)cc3)n(C[C@H](O)C(F)(F)F)c2=O)n1
2. O=C(NCC1CS(=O)(=O)C1)c1ccccc1-n1cnc(Cn2nc(-c3ccc(Cl)cc3)n(C[C@H](O)C(F)(F)F)c2=O)n1

Key:
[7.61, 7.55]

====

- Measurement target: UniProt P37288
- Protocol: Cellular in vitro assay for determining vasopressin receptor activity, V1a receptor cell line (CHO, aequorin luminescence)
- Test conditions: CHO cell line transfected with human V1a receptor; [Arg]-vasopressin at EC50 concentration; read-out: IC50 hV1a
Attribute measured: pIC50
Give bare numbers, as −log10 of the molar value.

Example entries and their recorded answers appear below.
Compound	Value observed
O=C(c1cccc(Cl)c1-n1cnc(Cn2nc(-c3ccc(Cl)cc3)n(C[C@H](O)C(F)(F)F)c2=O)n1)N1CCC(F)(F)C1	7.32
NC(=O)CNC(=O)c1ccccc1-n1cnc(Cn2nc(-c3ccc(Cl)cc3)n(C[C@H](O)C(F)(F)F)c2=O)n1	8.26
COCC1CCCN1C(=O)c1ccncc1-n1nc(Cn2nc(-c3ccc(Cl)cc3)n(C[C@H](O)C(F)(F)F)c2=O)nc1C(=O)NCC(C)(C)N (mixture of isomers)	6.55
O=C(c1ncccc1-n1cnc(Cn2nc(-c3ccc(Cl)cc3)n(C[C@H](O)C(F)(F)F)c2=O)n1)N1CCNC(C(F)(F)F)C1 (mixture of isomers)	6.78
CC1(C(=O)Nc2ncccc2-n2cnc(Cn3nc(-c4ccc(Cl)cc4)n(C[C@H](O)C(F)(F)F)c3=O)n2)CCCCC1	7.04
O=C(c1ccccc1-n1cnc(Cn2nc(-c3ccc(Cl)cc3)n(C[C@H](O)C(F)(F)F)c2=O)n1)N1CCCCCCC1	8.19
O=C(NC1CC(F)(F)C1)c1ncccc1-n1cnc(Cn2nc(-c3ccc(Cl)cc3)n(C[C@@H](O)C(F)(F)F)c2=O)n1	6.77
O=C(NC1CC1F)c1cccc(Cl)c1-n1cnc(Cn2nc(-c3ccc(Cl)cc3)n(C[C@H](O)C(F)(F)F)c2=O)n1 (stereo partly drawn)	8.32

For the 4 compounds below, give their pIC50 values.
1. O=C1CN(C(=O)c2nc(Cn3nc(-c4ccc(Cl)cc4)n(C[C@H](O)C(F)(F)F)c3=O)nn2-c2cnccc2C(=O)NC2CC2)CCN1
2. O=C(Nc1cccnc1-n1cnc(Cn2nc(-c3ccc(Cl)cc3)n(C[C@H](O)C(F)(F)F)c2=O)n1)C1CC1(F)F (single isomer, unassigned) [Example 42]
3. CC1CN(C(=O)c2cccc(Cl)c2-n2cnc(Cn3nc(-c4ccc(Cl)cc4)n(C[C@H](O)C(F)(F)F)c3=O)n2)CCO1 (mixture of isomers)
4. O=C(CC1CC1)Nc1ccncc1-n1cnc(Cn2nc(-c3ccc(Cl)cc3)n(C[C@H](O)C(F)(F)F)c2=O)n1

Key:
1. 6.47
2. 7.64
3. 6.53
4. 7.89

====

- Measurement target: human V1a receptor (Homo sapiens, UniProt P37288)
- Construct: expressed in transfected cells; host or cells: CHO K1 (ATCC), also stably transfected with a modified aequorin
- Protocol: Cellular in vitro assay for determining vasopressin receptor activity, V1a receptor cell line (CHO, aequorin luminescence)
- Format: cell-based
- Test conditions: selectivity ratio IC50 hV2 / IC50 hV1a
Attribute measured: ratio IC50 hV2/hV1a
Give bare numbers.

Example entries and their recorded answers appear below.
Compound	Measurement target	Value observed
O=C(Nc1ccc(F)cc1O)c1ccccc1-n1cnc(Cn2nc(-c3ccc(Cl)cc3)n(C[C@H](O)C(F)(F)F)c2=O)n1	human V1a receptor (Homo sapiens, UniProt P37288)	23.7
O=C(c1ncccc1-n1cnc(Cn2nc(-c3ccc(Cl)cc3)n(C[C@H](O)C(F)(F)F)c2=O)n1)N1CCC(C(F)(F)F)C1 (mixture of isomers)	human V1a receptor (Homo sapiens, UniProt P37288)	16.8
O=C1CN(C(=O)c2ncccc2-n2cnc(Cn3nc(-c4ccc(Cl)cc4)n(C[C@H](O)C(F)(F)F)c3=O)n2)CCN1	human V1a receptor (Homo sapiens, UniProt P37288)	102.3
CN(Cc1ccco1)C(=O)c1ccccc1-n1cnc(Cn2nc(-c3ccc(Cl)cc3)n(C[C@H](O)C(F)(F)F)c2=O)n1	human V1a receptor (Homo sapiens, UniProt P37288)	135.7
O=C(Nc1ncccc1-n1cnc(Cn2nc(-c3ccc(Cl)cc3)n(C[C@H](O)C(F)(F)F)c2=O)n1)c1ccccc1	human V1a receptor (Homo sapiens, UniProt P37288)	23.4

Now look at this one.
Exercise: # input compound: O=C(NCC(F)(F)F)c1cc(Cl)ccc1-n1cnc(Cn2nc(-c3ccc(Cl)cc3)n(C[C@H](O)C(F)(F)F)c2=O)n1 ; wanted: its ratio IC50 hV2/hV1a
Key: 3.5
